Task for the reader: assign each of the following compounds its reported pIC50.
- Tested on: Murine leukemia (L1210) cells
- test method notes: Cytostatic activity, L1210 cell proliferation
- Type: cell-based
- condition info: mean ± SD of three experiments; highest concentration tested 250 µM; 2 days; read-out: Toxicity (IC50) L1210
- Description: Murine leukemia (L1210), human T-lymphocyte (CEM) and the human cervix carcinoma (HeLa) cell line were suspended at 300,000–500,000 cells/mL of culture medium, and 100 μL of a cell suspension was added to 100 μL of an appropriate dilution of the test compounds in wells of 96-well microtiter plates. After incubation at 37°C for 2 (L1210), 3 (CEM), or 4 (HeLa) days, the cell number was determined using a Coulter counter. […]
pIC50: −log10 of the molar value.

# pIC50 measured on Murine leukemia (L1210) cells for item CCCCCc1ccc(C(=O)NCCCNC(=O)C2NC(=O)C3NC(=O)C(NC(=O)C4NC(=O)C(CC(N)=O)NC(=O)C(NC(=O)C(CC(C)C)NC)C(O)c5ccc(c(Cl)c5)Oc5cc4cc(c5OC4OC(CO)C(O)C(O)C4OC4CC(C)(N)C(O)C(C)O4)Oc4ccc(cc4Cl)C3O)c3ccc(O)c(c3)-c3c(O)cc(O)cc32)cc1 (stereo not drawn) [Vanc-49] = 4.20

Recorded pIC50 for CN[C@H](CC(C)C)C(=O)N[C@H]1C(=O)N[C@@H](CC(N)=O)C(=O)N[C@H]2C(=O)N[C@H]3C(=O)N[C@H](C(=O)N[C@H](C(=O)NCC(=O)Nc4ccc(N5CCOCC5)cc4)c4cc(O)cc(O)c4-c4cc3ccc4O)[C@H](O)c3ccc(c(Cl)c3)Oc3cc2cc(c3O[C@@H]2O[C@H](CO)[C@@H](O)[C@H](O)[C@H]2O[C@H]2C[C@](C)(N)[C@H](O)[C@H](C)O2)Oc2ccc(cc2Cl)[C@H]1O [Vanc-8] on Murine leukemia (L1210) cells was < 3.60

Murine leukemia (L1210) cells data for CNC(CC(C)C)C(=O)NC1C(=O)NC(CC(N)=O)C(=O)NC2C(=O)NC3C(=O)NC(C(=O)NC(C(=O)NCCCNC(=O)c4ccc5cc(O)ccc5c4)c4cc(O)cc(O)c4-c4cc3ccc4O)C(O)c3ccc(c(Cl)c3)Oc3cc2cc(c3OC2OC(CO)C(O)C(O)C2OC2CC(C)(N)C(O)C(C)O2)Oc2ccc(cc2Cl)C1O (stereo not drawn) [Vanc-30] ; its pIC50: < 3.60

For the compound CCCCC[N+](C)(C)CCCNC(=O)c1ccc(NC(=O)CNC(=O)C2NC(=O)C3NC(=O)C(NC(=O)C4NC(=O)C(CC(N)=O)NC(=O)C(NC(=O)C(CC(C)C)NC)C(O)c5ccc(c(Cl)c5)Oc5cc4cc(c5OC4OC(CO)C(O)C(O)C4OC4CC(C)(N)C(O)C(C)O4)Oc4ccc(cc4Cl)C3O)c3ccc(O)c(c3)-c3c(O)cc(O)cc32)cc1 (stereo not drawn) [Vanc-80] , the measured pIC50 on Murine leukemia (L1210) cells was 3.64

Kindly note: Murine leukemia (L1210) cells, CN[C@H](CC(C)C)C(=O)N[C@H]1C(=O)N[C@@H](CC(N)=O)C(=O)N[C@H]2C(=O)N[C@H]3C(=O)N[C@H](C(=O)N[C@H](C(=O)NCC(=O)Nc4c(C)cc(C)cc4C)c4cc(O)cc(O)c4-c4cc3ccc4O)[C@H](O)c3ccc(c(Cl)c3)Oc3cc2cc(c3O[C@@H]2O[C@H](CO)[C@@H](O)[C@H](O)[C@H]2O[C@H]2C[C@](C)(N)[C@H](O)[C@H](C)O2)Oc2ccc(cc2Cl)[C@H]1O [Vanc-9] , pIC50 value reported: < 3.60

The compound CNC(CC(C)C)C(=O)NC1C(=O)NC(CC(N)=O)C(=O)NC2C(=O)NC3C(=O)NC(C(=O)NC(C(=O)NCC(=O)Nc4ccc(C#CC5CC5)cc4)c4cc(O)cc(O)c4-c4cc3ccc4O)C(O)c3ccc(c(Cl)c3)Oc3cc2cc(c3OC2OC(CO)C(O)C(O)C2OC2CC(C)(N)C(O)C(C)O2)Oc2ccc(cc2Cl)C1O (stereo not drawn) [Vanc-70] , when measured on Murine leukemia (L1210) cells, yielded pIC50 of ≤ 3.60

Record CN[C@H](CC(C)C)C(=O)N[C@H]1C(=O)N[C@@H](CC(N)=O)C(=O)N[C@H]2C(=O)N[C@H]3C(=O)N[C@H](C(=O)N[C@H](C(=O)NCCNC(=O)/C=C/c4cccc(OC)c4)c4cc(O)cc(O)c4-c4cc3ccc4O)[C@H](O)c3ccc(c(Cl)c3)Oc3cc2cc(c3O[C@@H]2O[C@H](CO)[C@@H](O)[C@H](O)[C@H]2O[C@H]2C[C@](C)(N)[C@H](O)[C@H](C)O2)Oc2ccc(cc2Cl)[C@H]1O [Vanc-23] / Murine leukemia (L1210) cells, pIC50 recorded as < 3.60

So the reported pIC50 for CNC(CC(C)C)C(=O)NC1C(=O)NC(CC(N)=O)C(=O)NC2C(=O)NC3C(=O)NC(C(=O)NC(C(=O)NCCCNC(=O)c4nc5ccccc5[nH]4)c4cc(O)cc(O)c4-c4cc3ccc4O)C(O)c3ccc(c(Cl)c3)Oc3cc2cc(c3OC2OC(CO)C(O)C(O)C2OC2CC(C)(N)C(O)C(C)O2)Oc2ccc(cc2Cl)C1O (stereo not drawn) [Vanc-52] , on Murine leukemia (L1210) cells, turned out to be ≤ 3.60

Let me check: CNC(CC(C)C)C(=O)NC1C(=O)NC(CC(N)=O)C(=O)NC2C(=O)NC3C(=O)NC(C(=O)NC(C(=O)NCC(=O)Nc4ccc(C(=O)NCCCN(C)C)cc4)c4cc(O)cc(O)c4-c4cc3ccc4O)C(O)c3ccc(c(Cl)c3)Oc3cc2cc(c3OC2OC(CO)C(O)C(O)C2OC2CC(C)(N)C(O)C(C)O2)Oc2ccc(cc2Cl)C1O (stereo not drawn) [Vanc-82] , system Murine leukemia (L1210) cells, measured pIC50 is < 3.60

Hey, Murine leukemia (L1210) cells data for CNC(CC(C)C)C(=O)NC1C(=O)NC(CC(N)=O)C(=O)NC2C(=O)NC3C(=O)NC(C(=O)NC(C(=O)NCC(=O)Nc4ccc5c(c4)C(=O)c4ccccc4-5)c4cc(O)cc(O)c4-c4cc3ccc4O)C(O)c3ccc(c(Cl)c3)Oc3cc2cc(c3OC2OC(CO)C(O)C(O)C2OC2CC(C)(N)C(O)C(C)O2)Oc2ccc(cc2Cl)C1O (stereo not drawn) [Vanc-89] : pIC50 came out at 4.15

Item: CCCCCc1ccc(NC(=O)CNC(=O)[C@H]2NC(=O)[C@H]3NC(=O)[C@H](NC(=O)[C@@H]4NC(=O)[C@H](CC(N)=O)NC(=O)[C@H](NC(=O)[C@@H](CC(C)C)NC)[C@H](O)c5ccc(c(Cl)c5)Oc5cc4cc(c5O[C@@H]4O[C@H](CO)[C@@H](O)[C@H](O)[C@H]4O[C@H]4C[C@](C)(N)[C@H](O)[C@H](C)O4)Oc4ccc(cc4Cl)[C@H]3O)c3ccc(O)c(c3)-c3c(O)cc(O)cc32)cc1 [Vanc-74] | System: Murine leukemia (L1210) cells | pIC50: ≤ 3.60

Value sought: pIC50, system Murine leukemia (L1210) cells, item CNC(CC(C)C)C(=O)NC1C(=O)NC(CC(N)=O)C(=O)NC2C(=O)NC3C(=O)NC(C(=O)NC(C(=O)NCCCNC(=O)c4ccc5cc(NS(=O)(=O)c6ccc(C(C)C)cc6)ccc5c4)c4cc(O)cc(O)c4-c4cc3ccc4O)C(O)c3ccc(c(Cl)c3)Oc3cc2cc(c3OC2OC(CO)C(O)C(O)C2OC2CC(C)(N)C(O)C(C)O2)Oc2ccc(cc2Cl)C1O (stereo not drawn) [Vanc-66] . Result: < 3.60

---

Please provide measured IC50 for the entries that follow.
- System: Murine leukemia (L1210) cells
- test method notes: Cytostatic activity, L1210 cell proliferation
- Assay type: cell-based
- condition info: mean ± SD of three experiments; highest concentration tested 250 µM; 2 days; read-out: Toxicity (IC50) L1210
Write down the numeric answer in µM and omit the unit.

IC50 reading for CN[C@H](CC(C)C)C(=O)N[C@H]1C(=O)N[C@@H](CC(N)=O)C(=O)N[C@H]2C(=O)N[C@H]3C(=O)N[C@H](C(=O)N[C@H](C(=O)NCC(=O)Nc4ccc5cc6ccccc6cc5c4)c4cc(O)cc(O)c4-c4cc3ccc4O)[C@H](O)c3ccc(c(Cl)c3)Oc3cc2cc(c3O[C@@H]2O[C@H](CO)[C@@H](O)[C@H](O)[C@H]2O[C@H]2C[C@](C)(N)[C@H](O)[C@H](C)O2)Oc2ccc(cc2Cl)[C@H]1O : 177

Value of IC50 reported for the compound CCCC#Cc1ccc(NC(=O)CNC(=O)C2NC(=O)C3NC(=O)C(NC(=O)C4NC(=O)C(CC(N)=O)NC(=O)C(NC(=O)C(CC(C)C)NC)C(O)c5ccc(c(Cl)c5)Oc5cc4cc(c5OC4OC(CO)C(O)C(O)C4OC4CC(C)(N)C(O)C(C)O4)Oc4ccc(cc4Cl)C3O)c3ccc(O)c(c3)-c3c(O)cc(O)cc32)cc1 (stereo not drawn) is 42

Briefly, IC50 measured for CN[C@H](CC(C)C)C(=O)N[C@H]1C(=O)N[C@@H](CC(N)=O)C(=O)N[C@H]2C(=O)N[C@H]3C(=O)N[C@H](C(=O)N[C@H](C(=O)NCC(=O)Nc4ccc5c(c4)Cc4ccccc4-5)c4cc(O)cc(O)c4-c4cc3ccc4O)[C@H](O)c3ccc(c(Cl)c3)Oc3cc2cc(c3O[C@@H]2O[C@H](CO)[C@@H](O)[C@H](O)[C@H]2O[C@H]2C[C@](C)(N)[C@H](O)[C@H](C)O2)Oc2ccc(cc2Cl)[C@H]1O : 177

Summary for this compound, CNC(CC(C)C)C(=O)NC1C(=O)NC(CC(N)=O)C(=O)NC2C(=O)NC3C(=O)NC(C(=O)NC(C(=O)NCC(=O)Nc4ccc(C#CC5CCCC5)cc4)c4cc(O)cc(O)c4-c4cc3ccc4O)C(O)c3ccc(c(Cl)c3)Oc3cc2cc(c3OC2OC(CO)C(O)C(O)C2OC2CC(C)(N)C(O)C(C)O2)Oc2ccc(cc2Cl)C1O (stereo not drawn) : IC50 is 185

Data point: CNC(CC(C)C)C(=O)NC1C(=O)NC(CC(N)=O)C(=O)NC2C(=O)NC3C(=O)NC(C(=O)NC(C(=O)NCCCNC(=O)c4ccc(C(F)(F)F)cc4)c4cc(O)cc(O)c4-c4cc3ccc4O)C(O)c3ccc(c(Cl)c3)Oc3cc2cc(c3OC2OC(CO)C(O)C(O)C2OC2CC(C)(N)C(O)C(C)O2)Oc2ccc(cc2Cl)C1O (stereo not drawn) ; IC50 = 164
